Tested on: non-small cell lung cancer cell line H460
Assay: In vitro human cancer cell line cytotoxicity (proliferation) assay in H460, CellTiter-Glo, 72 hours
Assay type: cell-based
Details: Homo sapiens, NCI-H460, 72 h, H460 cells, DMSO condition (no AKR1C3 inhibitor), read-out: CTG H460: Avg IC50 (nM) [Assay Condition: DMSO]
Procedure: Biological Example 1. In Vitro Human Cancer Cell Line Cytotoxicity Assay IC50 values in nanomolar reported here were derived from in vitro proliferation assay data in non-small cell lung cancer cell line H460. Specifically, exponentially growing cells were seeded at density of 3×10^3 cells per well in 96-well plate and incubated at 37° C. in 5% CO2, 95% air and 100% relative humidity for 24 hours before adding compounds. Compounds were solubilized in 100% DMSO at 10 mM. […]
The following molecules are listed with their measured IC50 values.

**Query** Query (molecule): `CC(C)COc1cc(Oc2c([N+](=O)[O-])ccc3c2CC[C@@H]3OP(=O)(N2CC2)N2CC2)ccc1F` ; field requested: IC50
**Result** < 10 nM

**Query** Query (molecule): CN1Cc2cc(Oc3cc4c(cc3[N+](=O)[O-])CCC4OP(=O)(N3CC3)N3CC3)ccc2C1=O (centres unmarked) ; field requested: IC50
**Result** < 10 nM

**Query** Query (molecule): `Cc1ncc(-c2cccc(Oc3c([N+](=O)[O-])ccc4c3CC[C@@H]4OP(=O)(N3CC3)N3CC3)c2)[nH]1` ; field requested: IC50
**Result** < 10 nM

**Query** Query (molecule): Cc1noc(-c2cccc(Oc3c([N+](=O)[O-])ccc4c3CCC4OP(=O)(N3CC3)N3CC3)c2)n1 (centres unmarked) ; field requested: IC50
**Result** < 10 nM

**Query** Query (molecule): O=C(NC1CC1)c1ccc(Oc2cc3c(cc2[N+](=O)[O-])CCC3OP(=O)(N2CC2)N2CC2)cc1 (single isomer, unassigned) ; field requested: IC50
**Result** 10 to 50 nM

**Query** Query (molecule): `O=[N+]([O-])c1ccc2c(c1Oc1ccc(F)c(OC3CCOCC3)c1)CC[C@@H]2OP(=O)(N1CC1)N1CC1` ; field requested: IC50
**Result** < 10 nM

**Query** Query (molecule): CN(C)C(=O)c1ccc(Oc2c([N+](=O)[O-])ccc3c2OCCC3OP(=O)(N2CC2)N2CC2)cc1 (single isomer, unassigned) ; field requested: IC50
**Result** 10 to 50 nM

**Query** Query (molecule): O=[N+]([O-])c1ccc2c(c1Oc1ccc(-c3ccccn3)cc1)CC[C@H]2OP(=O)(N1CC1)N1CC1 (single isomer, unassigned) ; field requested: IC50
**Result** < 10 nM

**Query** Query (molecule): `COc1ccc(Oc2c([N+](=O)[O-])ccc3c2CC[C@@H]3OP(=O)(N2CC2)N2CC2)cc1OCC1CC1` ; field requested: IC50
**Result** < 10 nM

====

system: non-small cell lung cancer cell line H460; test: In vitro human cancer cell line cytotoxicity (proliferation) assay in H460, CellTiter-Glo, 72 hours; type: cell-based; conditions: Homo sapiens, NCI-H460, 72 h, H460 cells, DMSO condition (no AKR1C3 inhibitor), read-out: CTG H460: Avg IC50 (nM) [Assay Condition: DMSO]
The following compounds are listed with their measured IC50 values.

compound	val
O=[N+]([O-])c1cc2oc(COP(=O)(N3CC3)N3CC3)cc2cc1Oc1ccc(-c2ccccc2)cc1	< 10 nM
O=[N+]([O-])c1ccc2c(c1Oc1ccc(-c3ccc(F)cc3)c(F)c1)CCC2OP(=O)(N1CC1)N1CC1 (single isomer, unassigned)	< 10 nM
Cc1coc(-c2ccc(Oc3c([N+](=O)[O-])ccc4c3CC[C@@H]4OP(=O)(N3CC3)N3CC3)cc2)n1	< 10 nM
O=[N+]([O-])c1ccc2c(c1Oc1cccc(-n3ccc(C4CC4)n3)c1)CCC2OP(=O)(N1CC1)N1CC1 (stereo not shown)	10 to 50 nM
Cc1nncn1-c1cccc(Oc2c([N+](=O)[O-])ccc3c2CC[C@@H]3OP(=O)(N2CC2)N2CC2)c1	< 10 nM

**Query** Query (compound): O=C(c1ccc(Oc2c([N+](=O)[O-])ccc3c2CCC3OP(=O)(N2CC2)N2CC2)cc1)N1CCOCC1 (stereo not shown) ; field requested: IC50
**Result** 10 to 50 nM

**Query** Query (compound): `O=[N+]([O-])c1ccc2c(c1Oc1ccc(F)c(-c3nncs3)c1)CC[C@@H]2OP(=O)(N1CC1)N1CC1` ; field requested: IC50
**Result** < 10 nM

Origin of values: patent US20260167656A1
